Test system: Vero
Assay: Toxicity against Vero cells at 62.5 ug/ml after 72 hrs by MTT assay
Format: cell-based
Details: chlorocebus sabaeus
measured_property: Activity

O=S(=O)(c1ccc(NC(c2ccccc2)n2nc(COc3cccc4ccccc34)oc2=S)cc1)c1ccc(NC(c2ccccc2)n2nc(COc3cccc4ccccc34)oc2=S)cc1 (stereo not drawn)
Non-toxic
O=S(=O)(c1ccc(NC(c2ccccc2)n2nc(-c3ccccc3)oc2=S)cc1)c1ccc(NC(c2ccccc2)n2nc(-c3ccccc3)oc2=S)cc1 (stereo not drawn)
Non-toxic
O=S(=O)(c1ccc(NC(c2ccccc2)n2nc(Cc3ccccc3)oc2=S)cc1)c1ccc(NC(c2ccccc2)n2nc(Cc3ccccc3)oc2=S)cc1 (stereo not drawn)
Non-toxic
O=S(=O)(c1ccc(NC(Cc2ccco2)n2nc(-c3ccc(Nc4ccccc4)cc3)oc2=S)cc1)c1ccc(NC(Cc2ccco2)n2nc(-c3ccc(Nc4ccccc4)cc3)oc2=S)cc1 (stereo not drawn)
Non-toxic
O=S(=O)(c1ccc(NC(c2ccccc2)n2nc(COc3ccc4ccccc4c3)oc2=S)cc1)c1ccc(NC(c2ccccc2)n2nc(COc3ccc4ccccc4c3)oc2=S)cc1 (stereo not drawn)
Non-toxic

Prompt: What does the record list as Activity for O=S(=O)(c1ccc(NC(Cc2ccco2)n2nc(Cc3ccccc3)oc2=S)cc1)c1ccc(NC(Cc2ccco2)n2nc(Cc3ccccc3)oc2=S)cc1 (stereo not drawn) ?
Completion: Non-toxic

Prompt: Another compound: O=S(=O)(c1ccc(NC(Cc2ccco2)n2nc(COc3ccccc3)oc2=S)cc1)c1ccc(NC(Cc2ccco2)n2nc(COc3ccccc3)oc2=S)cc1 (stereo not drawn)
Completion: Non-toxic

Prompt: Another compound: O=S(=O)(c1ccc(NC(Cc2ccco2)n2nc(COc3cccc4ccccc34)oc2=S)cc1)c1ccc(NC(Cc2ccco2)n2nc(COc3cccc4ccccc34)oc2=S)cc1 (stereo not drawn)
Completion: Non-toxic
